- Assay protocol: in vitro
- Stated conditions: human, microsomes, HLM t1/2
Recorded endpoint: half-life at 3 µM (min)
API: value field is a number in min; no unit string.

"Cn1cc(-c2cc(-c3cc(Cl)c(F)c(OCc4ccccc4Cl)c3)c(=O)n(-c3cccnc3)c2)c(=O)[nH]c1=O" yielded half-life at 3 µM of 7.2

====

Task for the reader: assign each of the following compounds its reported CC50.
- Assay protocol: in vitro
- Stated conditions: chlorocebus sabaeus

According to the records, this compound Cc1scnc1COc1cc(Cl)cc(-n2cc(-c3ccc[nH]c3=O)c(=O)n(-c3cccnc3)c2=O)c1 [Compound 39] displays CC50 of > 100 µM

get_value(item= O=c1[nH]cccc1-c1cn(-c2cc(Cl)cc(Cl)c2)c(=O)n(-c2cccnc2)c1=O [Compound 6] , readout=CC50) returns > 100 µM

Form: compound = Cn1c([N+](=O)[O-])cnc1COc1cc(Cl)cc(-n2cc(-c3ccc[nH]c3=O)c(=O)n(-c3cccnc3)c2=O)c1 [Compound 42] ; CC50 = > 100 µM

For record O=c1ccc(-c2cn(-c3cc(Cl)cc(Cl)c3)c(=O)n(-c3cccnc3)c2=O)c[nH]1 [Compound 7] the listed CC50 is > 100 µM

====

Give measured remaining at 0.25 h, 3 µM for each item. Keep answers brief.
- Assay protocol: Mouse liver microsome stability assay
- Stated conditions: CD-1, mouse, microsomes
Reply with just the number (in %).

So for "O=c1[nH]cccc1-c1cn(-c2cc(Cl)cc(OCc3nccn3C(F)F)c2)c(=O)n(-c2cccnc2)c1=O" , the logged remaining at 0.25 h, 3 µM turned out to be 37.7

Record "O=c1[nH]cccc1-c1cn(-c2cc(Cl)cc(OCCC(F)(F)F)c2)c(=O)n(-c2cccnc2)c1=O" , field remaining at 0.25 h, 3 µM: 83.8

response.value for "O=c1[nH]cccc1-c1cn(-c2cc(Cl)cc(OCc3ncsc3C(F)(F)F)c2)c(=O)n(-c2cccnc2)c1=O" (field: remaining at 0.25 h, 3 µM) = 20.6

Record summary for "O=c1[nH]cccc1-c1cn(-c2cc(Cl)cc(OCc3ccccc3Cl)c2)c(=O)n(-c2cccnc2)c1=O" : reported remaining at 0.25 h, 3 µM = 7.53

====

- Tested on: SARS-CoV-2-Nluc reporter virus
- Assay protocol: microbe, parasite or virus in culture
- Format: cell-based
- Stated conditions: Severe acute respiratory syndrome coronavirus 2; VeroE6/TMPRSS2 cells; parentheses denote 95% confidence intervals
Recorded endpoint: pEC50
Expect pEC50 as a plain number equal to -log10 of the molar concentration.

The molecule O=c1[nH]cccc1-c1cn(-c2cc(Cl)cc(OCc3scnc3C(F)(F)F)c2)c(=O)n(-c2cccnc2)c1=O [Compound 37] , when measured on SARS-CoV-2-Nluc reporter virus, yielded pEC50 of 5.62

Recorded pEC50 for Cn1c([N+](=O)[O-])cnc1COc1cc(Cl)cc(-n2cc(-c3ccc[nH]c3=O)c(=O)n(-c3cccnc3)c2=O)c1 [Compound 42] on SARS-CoV-2-Nluc reporter virus was 4.71

Here O=c1[nH]cccc1-c1cn(-c2cc(Cl)cc(OCc3nc4ccccc4n3C(F)F)c2)c(=O)n(-c2cccnc2)c1=O [Compound 38] was tested on SARS-CoV-2-Nluc reporter virus, and its pEC50 came to 5.72

Recorded pEC50 for O=c1[nH]cccc1-c1cn(-c2cc(Cl)cc(OCC3CC3)c2)c(=O)n(-c2cccnc2)c1=O [Compound 35] on SARS-CoV-2-Nluc reporter virus was 6.09

These entries and their values trace back to paper PMC10577883.
